# SYSTEM_TESTED: mGlu4 (Rattus norvegicus, UniProt P31423)
# Sequence (P31423 33-912): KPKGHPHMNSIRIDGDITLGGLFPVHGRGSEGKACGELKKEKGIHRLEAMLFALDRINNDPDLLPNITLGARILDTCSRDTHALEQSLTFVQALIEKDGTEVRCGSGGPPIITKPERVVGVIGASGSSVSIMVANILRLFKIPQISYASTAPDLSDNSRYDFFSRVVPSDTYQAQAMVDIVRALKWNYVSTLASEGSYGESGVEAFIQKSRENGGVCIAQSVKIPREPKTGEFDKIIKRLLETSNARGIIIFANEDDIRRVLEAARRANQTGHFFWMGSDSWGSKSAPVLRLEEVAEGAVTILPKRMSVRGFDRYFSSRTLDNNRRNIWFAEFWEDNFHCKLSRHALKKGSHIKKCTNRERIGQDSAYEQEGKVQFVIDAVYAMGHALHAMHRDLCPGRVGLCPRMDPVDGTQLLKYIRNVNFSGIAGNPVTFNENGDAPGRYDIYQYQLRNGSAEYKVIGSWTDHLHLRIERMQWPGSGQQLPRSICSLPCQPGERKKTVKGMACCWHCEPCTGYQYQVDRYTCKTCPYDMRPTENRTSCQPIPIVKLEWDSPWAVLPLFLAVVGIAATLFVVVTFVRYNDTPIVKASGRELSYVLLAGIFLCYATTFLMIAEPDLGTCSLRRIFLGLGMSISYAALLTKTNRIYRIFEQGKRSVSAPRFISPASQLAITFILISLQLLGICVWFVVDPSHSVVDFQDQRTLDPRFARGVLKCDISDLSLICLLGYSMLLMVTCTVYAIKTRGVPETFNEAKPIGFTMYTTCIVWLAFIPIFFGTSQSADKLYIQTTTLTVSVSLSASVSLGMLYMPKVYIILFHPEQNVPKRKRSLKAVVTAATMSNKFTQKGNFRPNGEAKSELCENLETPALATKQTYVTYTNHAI
# ASSAY_REMARKS: Co-operative assay: enhancement of [3H]3 binding by orthosteric agonists
RECORDED_METRIC: EC50 (nM)
Express it in nM; write the number only.

Given item N[C@@H](CCC(=O)O)C(=O)O [compound 1, L-Glutamate acid] , the value recorded as its EC50 is 832
